FYI, the data here is from patent US20210024640A1.

For each of the binders below, state its Kd.
TARGET_ENTITY: T1, OX40-his (Homo sapiens (Human), UniProt P43489 29-214, limits assumed)
T1 construct: Analyte of the Biacore 8K assay; also called Ag OX40-his; Antigen OX40-his; not shown: His tag
T1 sequence: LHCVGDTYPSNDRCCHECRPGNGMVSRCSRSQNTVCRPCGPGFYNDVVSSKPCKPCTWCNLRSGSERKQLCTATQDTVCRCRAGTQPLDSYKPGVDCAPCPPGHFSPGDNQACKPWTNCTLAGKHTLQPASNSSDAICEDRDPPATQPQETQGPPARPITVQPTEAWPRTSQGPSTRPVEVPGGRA
ASSAY: SPR Biacore 8K, antibody captured, OX40-his as analyte
Numbers only, in nM.

Example entries begin here.
BINDER	Kd / nM
humanized Ab REMD 277.2 (VH2-1/VL5BM) (antibody, human IgG1, kappa, V domains shown) VH: EVQLVQSGAEVKKPGESLKISCKGSGYTFTSYVMHWVRQMPGKGLEWMGYINPYNDGTKYNEKFKGQVTISADKSISTAYLQWSSLKASDTAMYYCARYYGSNYAMDYWGQGTMVTVSS VL: DIQMTQSPSSLSASVGDRVTISCRASQDIRNYLNWYQQKPGKTVKLLIYYTSRLHSGVPSRFSGSGSGTDYTFTISSLQPEDIATYFCQQGNTLPWTFGGGTKLEIKR	5.94
murine-human chimeric antibody derived from murine antibody A6 (chimeric IgG) (antibody, V domains shown, also called chimeric OX40 Ab) VH: EVQLQQSGPELVKPGASVKMSCKASGYTFTSYVMHWVKQKPGQGLEWIGYINPYNDGTKYNEKFKGKATLTSDKSSSTAYMELSSLTSEDSAVYYCANYYGSNYAMDYWGQGTSVTVSS VL: DIQMTQTTSSLSASLGDRVTISCRASQDIRNYLNWYQQKPDGTVKLLIYYTSRLHSGVPSRFSGSGSGTDYSLTISNLEQEDIATYFCQQGNTLPWTFGGGTKLEIKR	9.18
humanized Ab REMD 277 (VH2-1/VL2-2) (antibody, human IgG1, kappa, V domains shown) VH: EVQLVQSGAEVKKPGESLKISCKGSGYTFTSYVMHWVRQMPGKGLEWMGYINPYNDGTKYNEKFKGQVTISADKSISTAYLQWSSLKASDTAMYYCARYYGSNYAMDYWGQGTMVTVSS VL: EIVMTQSPATLSASPGERVTLSCRASQDIRNYLNWYQQKPGGAVRLLIYYTSRLHSGVPARFSGSGSGTDYTLTISSLEPEDYAVYFCQQGNTLPWTFGQGTKVEIKR	6.3

Switching to the query record.
Could you share which Kd value was measured for humanized Ab REMD 277.1 (VH2-1/VL2-1) (antibody, human IgG1, kappa, V domains shown) VH: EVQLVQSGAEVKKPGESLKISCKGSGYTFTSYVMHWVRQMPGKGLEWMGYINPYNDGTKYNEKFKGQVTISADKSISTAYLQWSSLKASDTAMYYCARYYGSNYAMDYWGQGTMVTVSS VL: EIVLTQSPATLSLSPGERATLSCRASQDIRNYLNWYQQKPGQAPRLLIYYTSRLHSGIPARFSGSGSGTDFTLTISSLEPEDFAVYYCQQGNTLPWTFGQGTKVEIKR ?
13.8
